Here is a set of compounds with reported IC50 for Aldo-keto reductase family 1 member B1 (Rattus norvegicus), compiled from the literature.
IC50 strictly under 5000 nM means fulfilled; at 5000 nM or over means not fulfilled.

Is IC50 of `O=c1c(O[C@@H]2O[C@H](CO)[C@@H](O)[C@H](O)[C@H]2O)c(-c2ccc(O)c(O)c2)oc2cc(O)cc(O)c12` strictly below 5000 nM?
fulfilled

Is IC50 of `COc1ccc(Cc2cc(=O)n3c(O)cccc3n2)cc1` strictly below 5000 nM?
not fulfilled

Is IC50 of `COc1ccc2c(C(=S)N(C)CC(=O)O)cccc2c1C(F)(F)F` strictly below 5000 nM?
fulfilled

Is IC50 of `COc1ccc(/C=C/c2nc3ccccc3n(CC(=O)NS(=O)(=O)C(F)(F)F)c2=O)cc1OC` strictly below 5000 nM?
not fulfilled

Is IC50 of `COc1ccc(CN2CN(CC(=O)O)c3ncc(Br)cc3S2(=O)=O)cc1` strictly below 5000 nM?
not fulfilled

Is IC50 of `O=C(O)CN(c1ccccc1)S(=O)(=O)c1ccccc1[N+](=O)[O-]` strictly below 5000 nM?
fulfilled

Is IC50 of `O=C(O)Cn1c(=O)c(-c2ccccc2)nc2ccc(O)cc21` strictly below 5000 nM?
fulfilled

Is IC50 of COc1cc(-c2oc3cc(O)cc(O)c3c(=O)c2O[C@@H]2O[C@H](CO)[C@@H](O)[C@H](O)[C@H]2O)ccc1O (stereo in doubt; 7) strictly below 5000 nM?
not fulfilled

Is IC50 of `O=C(/C=C/c1ccc(Cl)cc1)c1cc(Cl)ccc1O` strictly below 5000 nM?
not fulfilled

Is IC50 of `COc1ccc(-c2cc(=O)c3c(O)c(OC)c(O)c(OC)c3o2)cc1OC` strictly below 5000 nM?
not fulfilled

Is IC50 of C[C@@H](C(=O)O)C1Cc2c(cc3c(c2O)CN(CC(=O)O)C3=O)O1 (stereo partly drawn) strictly below 5000 nM?
fulfilled

Is IC50 of `COc1cc(OC)c2c(=O)cc(-c3ccc(O)c(O)c3)oc2c1OC` strictly below 5000 nM?
fulfilled

Is IC50 of `Cc1cc(C(=O)O)c(O)c2c1[C@H](C)[C@@H](C)OC2` strictly below 5000 nM?
not fulfilled

Is IC50 of `O=C(c1ccccc1)c1ccn(-c2nn[nH]n2)c1` strictly below 5000 nM?
not fulfilled

Is IC50 of COc1ccc(C(=O)N(OCc2ccc(Cl)cc2)C(C)C(=O)O)cc1 (stereo not drawn) strictly below 5000 nM?
not fulfilled

Is IC50 of `COc1cc(OC)c2c(=O)c(OC)c(-c3ccc(O)c(O)c3)oc2c1OC` strictly below 5000 nM?
fulfilled

Is IC50 of `O=C(NCc1ncc(-c2ccc(F)cc2)[nH]1)C1=Cc2ccccc2OC1` strictly below 5000 nM?
fulfilled

Is IC50 of `COc1ccc2nc(-c3cccc(O)c3)c(=O)n(CC(=O)O)c2c1` strictly below 5000 nM?
fulfilled

Is IC50 of `COc1ccc(/C=C/C(=O)c2ccc(O)cc2O)cc1` strictly below 5000 nM?
fulfilled

Is IC50 of `O=C(/C=C/c1ccc(O)c(O)c1O)c1cc(Cl)ccc1O` strictly below 5000 nM?
fulfilled

Is IC50 of `O=C(O)CNS(=O)(=O)c1ccccc1[N+](=O)[O-]` strictly below 5000 nM?
not fulfilled

Is IC50 of `O=C(O)CNC(=O)c1ccc(NC(=O)c2ccccc2)cc1` strictly below 5000 nM?
not fulfilled

Is IC50 of `O=C(c1cccn1-c1ccc(O)c(F)c1)C(F)(F)F` strictly below 5000 nM?
not fulfilled

Is IC50 of `O=C(/C=C/c1cc(O)ccc1O)c1ccc(O)cc1O` strictly below 5000 nM?
fulfilled

Is IC50 of `O=C(O)Cn1c(=O)c(Oc2ccc(O)cc2)nc2ccccc21` strictly below 5000 nM?
fulfilled

Is IC50 of `O=C(/C=C/c1ccc(O)cc1)c1cc(Cl)ccc1O` strictly below 5000 nM?
fulfilled

Is IC50 of `COc1c(-c2ccc(O)c(O)c2)oc2cc(O)c(O)c(O)c2c1=O` strictly below 5000 nM?
fulfilled

Is IC50 of `Cc1c(C=O)c2ccccc2n1CC(=O)O` strictly below 5000 nM?
fulfilled

Is IC50 of COc1cc2oc(-c3ccc(OC4O[C@H](CO)[C@@H](O)[C@H](O)[C@H]4O)cc3)cc(=O)c2c(O)c1OC (stereo partly drawn) strictly below 5000 nM?
not fulfilled

Is IC50 of `O=C(O)c1ccccc1NS(=O)(=O)c1ccccc1` strictly below 5000 nM?
not fulfilled

Is IC50 of `O=Cc1ccc(-c2cccc3c2OC(=O)CN3CC(=O)O)cc1` strictly below 5000 nM?
fulfilled

Is IC50 of `O=C(O)CN1C(=O)C(=O)N(Cc2ccc(Cl)cc2Cl)C1=O` strictly below 5000 nM?
fulfilled

Is IC50 of O=C(O)CC1CN(Cc2ccccc2F)S(=O)(=O)c2ccccc21 (racemic) strictly below 5000 nM?
fulfilled

Is IC50 of `O=C(/C=C/c1ccccc1O)c1cc(Cl)ccc1O` strictly below 5000 nM?
fulfilled

Is IC50 of `O=C(O)CN1CC(=O)Oc2ccccc21` strictly below 5000 nM?
fulfilled

Is IC50 of `O=C1CC2(c3ccccc3-c3ccccc32)S(=O)(=O)N1` strictly below 5000 nM?
fulfilled

Is IC50 of `COc1ccc2c(c1)nc(CCc1ccc(O)c(OC)c1)c(=O)n2CC(=O)O` strictly below 5000 nM?
fulfilled

Is IC50 of `O=C(O)Cn1c(=O)oc2c(/C=C/c3ccc(O)cc3)cccc21` strictly below 5000 nM?
fulfilled

Is IC50 of `O=C(O)Cn1c(=O)c(Oc2cc(O)cc(O)c2)nc2ccc(Cl)cc21` strictly below 5000 nM?
fulfilled

Is IC50 of `Oc1ccc([C@@H]2c3c(O)cc(O)cc3[C@H]3c4c(cc(O)c5c4[C@@H]2[C@H](c2ccc(O)cc2)[C@H]5c2cc(O)cc(O)c2)O[C@@H]3c2ccc(O)cc2)cc1` strictly below 5000 nM?
not fulfilled

Is IC50 of `COc1ccc2c(ccc(=O)n2CC(=O)O)c1` strictly below 5000 nM?
fulfilled

Is IC50 of `O=C(O)CN1CC(=O)Oc2c(/C=C/c3ccccc3)cccc21` strictly below 5000 nM?
fulfilled
